meta.source: patent US8742123B2

# assayProcedure: protein binding by Rapid Equilibrium Dialysis (RED), human serum
# Format: in vitro ADME
# runConditions: serum, 37° C., 100% HS
readoutName: fraction unbound at 5 hours, 1 uM
Reply with just the number.

input: For Cc1nnc(C(=O)NC(C)(C)c2nc(C(=O)NCc3ccc(F)cc3)c(O)c(=O)n2C)o1 [Raltegravir, reference compound] , what is its reported fraction unbound at 5 hours, 1 uM?
output: 0.133

* * *

# system: CYP3A4 (Homo sapiens)
# Sequence (P08684 whole entry): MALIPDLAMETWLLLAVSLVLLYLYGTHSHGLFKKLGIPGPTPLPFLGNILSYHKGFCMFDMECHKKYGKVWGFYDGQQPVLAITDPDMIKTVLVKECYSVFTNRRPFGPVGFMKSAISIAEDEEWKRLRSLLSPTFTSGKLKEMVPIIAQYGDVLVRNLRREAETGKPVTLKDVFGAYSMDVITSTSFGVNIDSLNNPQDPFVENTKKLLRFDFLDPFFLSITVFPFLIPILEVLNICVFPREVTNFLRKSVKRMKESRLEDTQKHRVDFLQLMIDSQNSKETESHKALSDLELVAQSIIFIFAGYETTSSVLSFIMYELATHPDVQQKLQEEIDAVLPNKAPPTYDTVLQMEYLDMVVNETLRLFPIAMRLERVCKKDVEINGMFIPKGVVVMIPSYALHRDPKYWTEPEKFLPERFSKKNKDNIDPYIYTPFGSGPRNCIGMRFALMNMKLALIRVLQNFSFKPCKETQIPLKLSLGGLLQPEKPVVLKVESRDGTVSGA
readoutName: Ki (µM)
Only the number, expressed in µM, is required.

input: For O=C(NCc1ccc(F)cc1)c1cnc(C(=O)NOCc2ccccc2)c(OCc2ccccc2)c1CO [Example 1] , what is its reported Ki?
output: 5.1

* * *

# assayProcedure: human liver microsome stability
# Format: in vitro ADME
# runConditions: microsomes, pH 7.4, 1 μM compound, 1 mM NADPH, read-out: Half-life in HLM (hrs) NADPH (converted)
readoutName: half-life at 1 μM (h)
Only the number, expressed in h, is required.

input: For Cc1nnc(C(=O)NC(C)(C)c2nc(C(=O)NCc3ccc(F)cc3)c(O)c(=O)n2C)o1 [Raltegravir, reference compound] , what is its reported half-life at 1 μM?
output: 19.7

* * *

Form field: half-life at 1 μM (one value per entry).
# assayProcedure: human liver microsome stability
# Format: in vitro ADME
# runConditions: human liver microsomes, pH 7.4, 1 μM compound, 1 mM NADPH, read-out: Half-life in HLM (hrs) NADPH (converted)
Only the number, expressed in h, is required.

Please review the following examples before continuing.
O=C(NCc1ccc2c(c1)OCO2)c1cnc(C(=O)NOCc2ccccc2)c(OCc2ccccc2)c1CO; 6.18
O=C(NCc1ccc(F)cc1)c1cnc(C(=O)NO)c(O)c1CO; 5

Query compound follows.
input: For O=C(NCc1ccc(F)cc1)c1cnc(C(=O)NOCc2ccccc2)c(OCc2ccccc2)c1CO , what is its reported half-life at 1 μM?
output: 7.4

* * *

# System: NL4.3 virus
# assayProcedure: multi-cycle antiviral activity in absence and presence of human serum, p24 ELISA
# Assay type: cell-based, HIV-1
# runConditions: Human immunodeficiency virus 1, 144 h, read-out: EC50 (uM) 10% FBS + 40% HS
readoutName: EC50 (µM)
Only the number, expressed in µM, is required.

input: For Cc1nnc(C(=O)NC(C)(C)c2nc(C(=O)NCc3ccc(F)cc3)c(O)c(=O)n2C)o1 [Raltegravir, reference compound] , what is its reported EC50?
output: 0.064

* * *

# assayProcedure: human liver microsome stability
# Assay type: in vitro ADME
# runConditions: microsomes, pH 7.4, 1 μM compound, 1 mM UDPGA, read-out: Half-life in HLM (hrs) UDPGA (converted)
readoutName: half-life at 1 μM (h)
Only the number, expressed in h, is required.

input: For Cc1nnc(C(=O)NC(C)(C)c2nc(C(=O)NCc3ccc(F)cc3)c(O)c(=O)n2C)o1 [Raltegravir, reference compound] , what is its reported half-life at 1 μM?
output: 7.03

* * *

# system: CYP2C9 (Homo sapiens, UniProt P11712)
# Sequence (P11712 whole entry): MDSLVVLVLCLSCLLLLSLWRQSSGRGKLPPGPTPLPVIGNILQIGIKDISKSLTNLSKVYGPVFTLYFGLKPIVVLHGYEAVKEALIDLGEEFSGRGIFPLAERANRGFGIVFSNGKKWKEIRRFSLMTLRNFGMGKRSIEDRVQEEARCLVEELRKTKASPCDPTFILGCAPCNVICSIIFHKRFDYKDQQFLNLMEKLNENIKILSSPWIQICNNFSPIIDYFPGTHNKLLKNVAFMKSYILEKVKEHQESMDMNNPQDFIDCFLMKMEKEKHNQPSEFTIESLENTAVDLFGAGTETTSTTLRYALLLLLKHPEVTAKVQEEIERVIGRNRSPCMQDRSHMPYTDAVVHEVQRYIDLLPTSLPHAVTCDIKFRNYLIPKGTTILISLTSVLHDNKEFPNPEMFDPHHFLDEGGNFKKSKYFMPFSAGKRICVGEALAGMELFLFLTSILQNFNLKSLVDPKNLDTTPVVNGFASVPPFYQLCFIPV
readoutName: Ki (µM)
Only the number, expressed in µM, is required.

input: For O=C(NCc1ccc(F)cc1)c1cnc(C(=O)NOCc2ccccc2)c(OCc2ccccc2)c1CO , what is its reported Ki?
output: 63.6

* * *

# assayProcedure: human liver microsome stability
# Assay type: in vitro ADME
# runConditions: human liver microsomes, pH 7.4, 1 μM compound, 1 mM UDPGA, read-out: Half-life in HLM (hrs) UDPGA (converted)
readoutName: half-life at 1 μM (h)
Only the number, expressed in h, is required.

Please review the following examples before continuing.
O=C(NCc1ccc(F)cc1)c1cnc(C(=O)NOCc2ccccc2)c(OCc2ccccc2)c1CO; 19.7
O=C(NCc1ccc2c(c1)OCO2)c1cnc(C(=O)NOCc2ccccc2)c(OCc2ccccc2)c1CO; 3.8

Query compound follows.
input: For O=C(NCc1ccc(F)cc1)c1cnc(C(=O)NO)c(O)c1CO , what is its reported half-life at 1 μM?
output: 16

* * *

# system: recombinant HIV-1 integrase (Human immunodeficiency virus type 1 group M subtype B, UniProt P12497)
# Construct: Recombinant integrase (250 ng/well) was assembled onto the immobilized donor oligonucleotide
# assayProcedure: integrase strand transfer assay
# runConditions: compounds added after assembly, 10% DMSO, read-out: ST IC50
readoutName: pIC50
Scale: pIC50 equals -log10([C]), with [C] in mol/L.

O=C(NCc1ccc(F)cc1)c1cnc(C(=O)NO)c(O)c1CO [Example 2]; 6.52
O=C(NCc1ccc(F)c(Cl)c1)c1cnc(C(=O)NO)c(O)c1CO [Example 14]; 7.57

input: For O=C(NO)c1ncc(COCc2ccccc2)c(CO)c1O [Example 18] , what is its reported pIC50?
output: 7.06

* * *

# assayProcedure: protein binding by Rapid Equilibrium Dialysis (RED), 10% FBS-RPMI
# Type: in vitro ADME
# runConditions: bovine, serum, 37° C.
readoutName: fraction unbound at 5 hours, 1 uM

input: For Cc1nnc(C(=O)NC(C)(C)c2nc(C(=O)NCc3ccc(F)cc3)c(O)c(=O)n2C)o1 [Raltegravir, reference compound] , what is its reported fraction unbound at 5 hours, 1 uM?
output: 0.653

* * *

# assayProcedure: human liver microsome stability
# Format: in vitro ADME
# runConditions: human liver microsomes, pH 7.4, 1 μM compound, 1 mM NADPH and 1 mM UDPGA, read-out: Half-life in HLM (hrs) NADPH/UDPGA (converted)
readoutName: half-life at 1 μM (h)
Only the number, expressed in h, is required.

Please review the following examples before continuing.
O=C(NCc1ccc(F)cc1)c1cnc(C(=O)NOCc2ccccc2)c(OCc2ccccc2)c1CO [Example 1]; 3.9
O=C(NCc1ccc2c(c1)OCO2)c1cnc(C(=O)NOCc2ccccc2)c(OCc2ccccc2)c1CO [Example 3]; 1.95

Query compound follows.
input: For O=C(NCc1ccc(F)cc1)c1cnc(C(=O)NO)c(O)c1CO [Example 2] , what is its reported half-life at 1 μM?
output: 5.9

* * *

# System: NL4.3 virus
# assayProcedure: multi-cycle antiviral activity in absence and presence of human serum, p24 ELISA
# Format: cell-based, HIV-1
# runConditions: Human immunodeficiency virus 1, 144 h, read-out: EC50 (uM) 10% FBS
readoutName: EC50 (µM)
Only the number, expressed in µM, is required.

input: Under NL4.3 virus: EC50 value of Cc1nnc(C(=O)NC(C)(C)c2nc(C(=O)NCc3ccc(F)cc3)c(O)c(=O)n2C)o1 [Raltegravir, reference compound] ?
output: 0.047
